Biological target: stearoyl-CoA desaturase (SCD1) (Mus musculus, UniProt P13516)
Sequence (P13516 1-355): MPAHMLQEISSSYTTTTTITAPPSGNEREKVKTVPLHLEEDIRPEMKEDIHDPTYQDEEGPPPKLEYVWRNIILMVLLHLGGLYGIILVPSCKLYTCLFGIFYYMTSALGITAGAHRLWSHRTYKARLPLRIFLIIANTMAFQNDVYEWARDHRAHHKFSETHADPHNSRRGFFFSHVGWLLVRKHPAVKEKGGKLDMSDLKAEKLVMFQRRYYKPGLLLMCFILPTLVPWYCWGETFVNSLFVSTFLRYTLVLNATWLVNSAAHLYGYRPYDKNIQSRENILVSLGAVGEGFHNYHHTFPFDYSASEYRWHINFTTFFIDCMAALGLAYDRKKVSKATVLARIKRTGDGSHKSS
MEASUREMENT NAME: pIC50
Entry type: numeric. Quantity: pIC50, the -log10 of concentration in molar units.

Exam item: Requested read-out: pIC50. Entry: `COc1ccc(CCn2ccc(-c3nc(C)c(C(=O)NCc4ccc(F)cc4)s3)n2)cc1`
Marked response: 7.02

Exam item: Try the compound `Cc1nc(-c2ccn(Cc3ccc(S(C)(=O)=O)cc3)n2)sc1C(=O)NCc1cccnc1`
Marked response: 6.76

Exam item: Try the compound `Cc1nc(-c2cncc(CCc3ccccc3)n2)sc1C(=O)NCc1ccccc1`
Marked response: 7.38

Exam item: Try the compound `Cc1nc(-c2ccn(CCN(C)c3ccccc3)n2)sc1C(=O)NCc1cccnc1`
Marked response: 7.31

These entries and their values trace back to patent US8314138B2.
